target: recombinant human ACC2 (Homo sapiens (Human)); experiment: Measurement of inhibitory activity on human ACC2 (MALDI-TOF MS, acetyl CoA to malonyl CoA conversion); type: biochemical; conditions: Tables 155-159
Sequence (O00763 27-2458): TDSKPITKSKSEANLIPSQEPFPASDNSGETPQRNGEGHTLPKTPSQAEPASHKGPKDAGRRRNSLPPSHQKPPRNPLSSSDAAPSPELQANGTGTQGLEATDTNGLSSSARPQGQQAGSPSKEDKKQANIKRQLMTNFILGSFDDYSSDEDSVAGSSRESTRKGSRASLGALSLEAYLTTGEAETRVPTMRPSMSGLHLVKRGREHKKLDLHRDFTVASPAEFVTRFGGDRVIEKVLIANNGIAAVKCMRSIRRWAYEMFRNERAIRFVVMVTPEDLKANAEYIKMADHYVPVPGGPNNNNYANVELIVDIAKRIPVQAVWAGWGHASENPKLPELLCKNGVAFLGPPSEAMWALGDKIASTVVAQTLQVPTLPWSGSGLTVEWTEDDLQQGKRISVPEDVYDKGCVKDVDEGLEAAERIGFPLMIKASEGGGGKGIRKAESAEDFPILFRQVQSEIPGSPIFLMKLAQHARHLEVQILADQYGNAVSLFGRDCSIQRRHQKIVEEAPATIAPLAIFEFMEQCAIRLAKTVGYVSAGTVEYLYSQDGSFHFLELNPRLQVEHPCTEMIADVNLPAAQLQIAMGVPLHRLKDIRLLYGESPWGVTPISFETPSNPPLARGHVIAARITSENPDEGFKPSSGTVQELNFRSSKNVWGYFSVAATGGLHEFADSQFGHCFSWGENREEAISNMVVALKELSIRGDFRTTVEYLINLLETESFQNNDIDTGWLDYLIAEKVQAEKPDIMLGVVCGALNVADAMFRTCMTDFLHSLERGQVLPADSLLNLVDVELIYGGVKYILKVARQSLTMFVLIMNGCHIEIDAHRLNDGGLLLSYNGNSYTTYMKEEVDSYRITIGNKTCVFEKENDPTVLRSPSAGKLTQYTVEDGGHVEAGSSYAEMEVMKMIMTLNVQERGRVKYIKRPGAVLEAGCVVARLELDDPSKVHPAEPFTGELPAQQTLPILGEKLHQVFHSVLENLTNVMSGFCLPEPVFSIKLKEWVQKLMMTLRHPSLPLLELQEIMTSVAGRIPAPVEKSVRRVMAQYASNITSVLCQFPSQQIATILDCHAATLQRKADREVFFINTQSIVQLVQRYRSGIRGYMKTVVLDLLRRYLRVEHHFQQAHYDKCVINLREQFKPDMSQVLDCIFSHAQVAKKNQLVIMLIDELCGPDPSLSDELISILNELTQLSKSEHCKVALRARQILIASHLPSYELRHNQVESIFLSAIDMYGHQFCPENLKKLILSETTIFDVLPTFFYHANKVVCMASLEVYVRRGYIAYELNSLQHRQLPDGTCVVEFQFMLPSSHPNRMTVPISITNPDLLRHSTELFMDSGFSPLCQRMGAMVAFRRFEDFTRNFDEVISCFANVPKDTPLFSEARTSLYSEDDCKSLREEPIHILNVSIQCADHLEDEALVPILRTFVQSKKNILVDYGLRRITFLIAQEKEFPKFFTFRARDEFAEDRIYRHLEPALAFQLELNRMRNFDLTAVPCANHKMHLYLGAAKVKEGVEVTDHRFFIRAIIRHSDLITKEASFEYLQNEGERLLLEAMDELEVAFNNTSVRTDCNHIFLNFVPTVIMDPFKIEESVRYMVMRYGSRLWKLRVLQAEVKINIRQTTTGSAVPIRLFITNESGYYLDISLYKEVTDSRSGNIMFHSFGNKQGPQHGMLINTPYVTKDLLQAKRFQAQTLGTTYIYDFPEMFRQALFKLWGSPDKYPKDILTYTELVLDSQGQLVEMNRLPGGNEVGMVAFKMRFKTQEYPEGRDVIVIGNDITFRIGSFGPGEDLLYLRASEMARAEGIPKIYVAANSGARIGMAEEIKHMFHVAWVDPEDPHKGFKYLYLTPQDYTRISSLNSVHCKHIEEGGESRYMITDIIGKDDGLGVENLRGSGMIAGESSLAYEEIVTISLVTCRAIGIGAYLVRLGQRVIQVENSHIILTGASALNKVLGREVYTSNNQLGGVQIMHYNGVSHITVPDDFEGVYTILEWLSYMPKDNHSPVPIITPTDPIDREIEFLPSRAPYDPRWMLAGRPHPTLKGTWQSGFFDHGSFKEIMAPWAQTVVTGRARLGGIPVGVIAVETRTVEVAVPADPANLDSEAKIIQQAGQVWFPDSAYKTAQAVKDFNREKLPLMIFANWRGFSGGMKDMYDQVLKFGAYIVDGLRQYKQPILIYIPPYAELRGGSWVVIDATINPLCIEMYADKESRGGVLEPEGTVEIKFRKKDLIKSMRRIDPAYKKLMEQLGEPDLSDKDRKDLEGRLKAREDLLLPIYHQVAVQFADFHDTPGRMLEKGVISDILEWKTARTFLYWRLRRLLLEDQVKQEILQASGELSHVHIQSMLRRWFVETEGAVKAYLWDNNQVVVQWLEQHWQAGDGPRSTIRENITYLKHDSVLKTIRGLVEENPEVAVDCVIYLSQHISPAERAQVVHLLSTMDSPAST
assay-readout: IC50 (nM)

Here are 3 compounds together with their reported answers.
So the reported IC50 for CC(=O)N[C@@H](C)CO[C@H]1C[C@H](COc2c(F)cc3nc(C(C)C)sc3c2Cl)C1 [Compound I-132] , on recombinant human ACC2 (Homo sapiens (Human)), turned out to be 48

Lab entry: recombinant human ACC2 (Homo sapiens (Human)) assay, compound CCOc1ccc2nc(O[C@H]3CC[C@H](OC[C@H](C)NC(C)=O)CC3)n(C)c2c1C1CC1 [Compound I-735] , IC50 = 677

Let me check: CC(=O)N[C@@H](C)CO[C@H]1C[C@H](COc2ccc3nc(O[C@@H]4CCOC4)sc3n2)C1 [Compound I-247] , system recombinant human ACC2 (Homo sapiens (Human)), measured IC50 is 17

(I) CC(=O)N[C@@H](C)CO[C@H]1C[C@H](COc2nccc(N3CCCC3)c2F)C1 [Compound I-358]
(II) CC(=O)N[C@@H](C)CO[C@H]1C[C@H](COc2ccc3nc(OCC4(C)COC4)sc3n2)C1 [Compound I-211]
Prompt: Could you tell me which of these two has the smaller IC50 figure? First: I Second: II Answer format: the label of the selected item.
Response: I
(I: 19 nM, II: 97 nM)

(P) CCOc1nc2cc(Cl)c(OC[C@H]3C[C@H](OC[C@H](C)NC(C)=O)C3)cc2s1 [Compound I-110]
(Q) CC(=O)N[C@@H](C)CO[C@H]1C[C@H](COc2cc3sc(C(C)(C)O)nc3cc2F)C1 [Compound I-159]
Prompt: Pick one: P or Q . Which has the bigger IC50 number? In your reply, give the label of the chosen option.
Response: Q

---

biological target: recombinant human ACC2 (Homo sapiens (Human)); assay: Measurement of inhibitory activity on human ACC2 (MALDI-TOF MS, acetyl CoA to malonyl CoA conversion); assay type: biochemical; details: Tables 155-159
pIC50: −log10 of the molar value.
assay-readout: pIC50

Example entries begin here.
For record `CC(=O)N[C@@H](C)CO[C@H]1CC[C@H](Oc2nc3cnc(OCc4ccccc4)c(Cl)c3n2C)CC1` the listed pIC50 is 7.55

GET /value?item= `COC(=O)N[C@@H](C)CO[C@H]1CC[C@H](Oc2ncc(-c3ncc(F)cn3)cc2F)CC1` &field=pIC50 returns 6.89

(I) CC(=O)N[C@@H](C)CO[C@H]1C[C@H](COc2ncnc(OCc3ccc(C(F)(F)F)nc3)c2Cl)C1
(II) CCOc1ccc2nc(O[C@H]3CC[C@H](OC[C@H](C)NC(C)=O)CC3)n(C)c2c1Cl
Prompt: // task: argmin of pIC50 over [ I , II ] Which one? Tell me its label.
Response: I

(1) CC(=O)N[C@@H](C)CC[C@H]1CC[C@H](Oc2nc3cnc(OC4CC4)c(Cl)c3n2C)CC1
(2) CC(=O)N[C@@H](C)CO[C@H]1C[C@H](COc2ccc3nc(OC[C@@H](C)F)sc3n2)C1
Prompt: Which record shows the lower pIC50: the first, 1 , or the second, 2 ? Record your answer as the label of the chosen record.
Response: 2
(2: 7.82, 1: 8.40)
